# Assayed system: Proton Pump (H^+/K^+-ATPase) (Sus scrofa)
# Assay name: Inhibitory effects on proton pump (H^+/K^+-ATPase) activity
# Conditions used: hog gastric vesicles; K^+ stimulated H^+/K^+-ATPase activity; 30 minutes at 37° C.
Counter-ions that a name gives are not always drawn.
Readout name: IC50 (nM)

Check out these entries, answers already filled in.
{"Compound": "C=CCn1c(C)c(C)c2cc(C(=O)NCCO)nc(N3CCc4ccccc4C3)c21 [Example 837, hydrochloride]", "Assay value": 29}
{"Compound": "Cc1c(C)n(Cc2cccc(F)c2)c2c(N3CCc4ccccc4C3)nc(C#N)cc12 [Example 695]", "Assay value": 481}
{"Compound": "COCCn1c(C)c(C)c2ccnc(N3CCc4ccccc4C3)c21 [Example 499, hydrochloride]", "Assay value": 65}
{"Compound": "COc1ccc(Cn2c(C)c(C)c3ccnc(CCc4ccccc4)c32)cc1 [Example 445, hydrochloride]", "Assay value": 460}
{"Compound": "Cc1c(C)n(CC(C)C)c2c(-c3ccc(Cl)cc3)nccc12 [Example 304, hydrochloride]", "Assay value": 915}

P. Cc1c(C)n(Cc2ccccc2)c2c(N(C)Cc3ccc(F)cc3)nccc12 [Example 141, hydrochloride]
Q. CCCn1c(C)c(C)c2ccnc(N3CCc4ccccc4C3)c21.Cl [Example 473, hydrochloride]
Decide: P or Q , by lowest recorded IC50. Answer by quoting the chosen item's label.
P
(P: 64 nM, Q: 470 nM)

###

# Assayed system: Proton Pump (H^+/K^+-ATPase) (Sus scrofa, UniProt P19156)
# Sequence (P19156 2-1034 limits assumed): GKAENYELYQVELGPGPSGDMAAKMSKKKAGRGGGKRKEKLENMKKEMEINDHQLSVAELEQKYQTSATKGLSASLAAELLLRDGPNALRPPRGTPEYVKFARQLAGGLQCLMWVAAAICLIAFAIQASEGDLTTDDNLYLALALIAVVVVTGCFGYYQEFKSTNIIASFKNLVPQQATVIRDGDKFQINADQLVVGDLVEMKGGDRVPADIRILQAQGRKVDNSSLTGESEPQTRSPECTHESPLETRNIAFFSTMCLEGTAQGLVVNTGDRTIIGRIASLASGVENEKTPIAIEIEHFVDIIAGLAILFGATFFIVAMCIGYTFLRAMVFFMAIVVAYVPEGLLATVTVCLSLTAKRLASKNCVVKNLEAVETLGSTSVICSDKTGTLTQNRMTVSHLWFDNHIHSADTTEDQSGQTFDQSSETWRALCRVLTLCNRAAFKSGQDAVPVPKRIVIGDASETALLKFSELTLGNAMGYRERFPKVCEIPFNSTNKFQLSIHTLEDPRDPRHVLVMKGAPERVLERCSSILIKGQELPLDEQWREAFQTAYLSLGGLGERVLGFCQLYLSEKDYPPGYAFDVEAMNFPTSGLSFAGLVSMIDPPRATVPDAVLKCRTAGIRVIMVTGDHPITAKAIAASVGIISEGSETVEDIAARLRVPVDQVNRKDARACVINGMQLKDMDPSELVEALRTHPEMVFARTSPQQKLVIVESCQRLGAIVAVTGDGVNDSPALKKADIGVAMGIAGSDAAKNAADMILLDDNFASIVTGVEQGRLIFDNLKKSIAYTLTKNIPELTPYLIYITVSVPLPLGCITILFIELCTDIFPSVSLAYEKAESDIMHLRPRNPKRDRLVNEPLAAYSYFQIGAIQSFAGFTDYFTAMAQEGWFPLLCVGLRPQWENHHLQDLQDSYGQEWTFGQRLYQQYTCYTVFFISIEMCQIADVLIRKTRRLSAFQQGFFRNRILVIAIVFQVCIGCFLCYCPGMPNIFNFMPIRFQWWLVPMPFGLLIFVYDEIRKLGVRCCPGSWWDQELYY
# Sequence (P18434 whole entry partner): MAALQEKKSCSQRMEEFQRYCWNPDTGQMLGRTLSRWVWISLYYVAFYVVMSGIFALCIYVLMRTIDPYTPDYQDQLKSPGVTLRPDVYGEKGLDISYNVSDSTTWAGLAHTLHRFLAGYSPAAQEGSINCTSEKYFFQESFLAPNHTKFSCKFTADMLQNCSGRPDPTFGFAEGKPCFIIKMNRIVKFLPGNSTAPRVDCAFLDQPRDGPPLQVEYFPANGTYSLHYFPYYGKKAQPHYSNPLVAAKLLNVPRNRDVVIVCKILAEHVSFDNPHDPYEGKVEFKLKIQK
# Assay name: Inhibitory effects on proton pump (H^+/K^+-ATPase) activity
# Conditions used: hog gastric vesicles; K^+ stimulated H^+/K^+-ATPase activity; 30 minutes at 37° C.
Structures can show the parent of a compound that is named as a salt.
Readout name: IC50 (nM)

{"Compound": "Cc1ccc(Cn2c(C)c(C)c3ccnc(-c4ccc(C)cc4)c32)cc1 [Example 279, hydrochloride]", "IC50 [nM]": 231}

a. CCCn1c(C)c(C)c2ccnc(NCc3ccc(Cl)cc3)c21.Cl [Example 229, hydrochloride]
b. Cc1c(C)n(Cc2cccc(F)c2)c2c(N3CCc4ccccc4C3)nc(CO)cc12 [Example 851, hydrochloride]
c. C=CCn1c(C)c(C)c2ccnc(N3CCc4cc(F)ccc4C3C)c21.Cl (stereo not shown) [Example 563, hydrochloride]
d. CCCn1c(C)c(C)c2cc(C(=O)N3CCCCC3)nc(N3CCc4ccccc4C3)c21 [Example 801, hydrochloride]
e. Cc1c(C)n(CC(C)C)c2c(CCc3ccccc3)nccc12 [Example 447, hydrochloride]
Highest IC50 first, then in falling order down to the smallest. To answer, write out the labels according to the requested order.
e, a, d, c, b

###

# Assayed system: Proton Pump (H^+/K^+-ATPase) (Sus scrofa)
# Assay name: Inhibitory effects on proton pump (H^+/K^+-ATPase) activity
# Conditions used: hog gastric vesicles; K^+ stimulated H^+/K^+-ATPase activity; 30 minutes at 37° C.
Structures can show the parent of a compound that is named as a salt.
Readout name: IC50 (nM)

a. Cc1c(C)n(Cc2cccc(F)c2)c2c(N3CCc4ccccc4C3)nc(N)cc12 [Example 847, hydrochloride]
b. Cc1[nH]c2c(-c3ccc(Cl)cc3)nccc2c1C [Example 299, hydrochloride]
c. COc1ccc(-c2nccc3c(C)c(C)n(Cc4ccccc4)c23)cc1 [Example 350, hydrochloride]
d. CCN1CCN(C(=O)c2cc3c(C)c(C)n(Cc4cccc(OC)c4)c3c(N3CCc4ccccc4C3)n2)CC1 [Example 824, hydrochloride]
Lab note: arrange the 4 compounds above from lowest to highest IC50. To answer, write out the labels according to the requested order.
d, a, c, b
(d: 33 nM, a: 62 nM, c: 210 nM, b: 350 nM)
